System: CD2F1 mice, L1210 leukemia ip, survival T/C
assay.text: NCI In Vivo Anticancer Drug Screen. Data for tumor model L1210 Leukemia (intraperitoneal) in CD2F1 (CDF1) mice
test.context: endpoint: mean survival time; dose: 2.5 mg/kg/injection; schedule: Q01DX009 (ip); vehicle: saline with Tween-80; higher = longer survival
Inconclusive results and toxic doses are left out.
measurement.name: T/C

The reported value for CC(C)C1=CC2=CCC3C(C)(CN)CCCC3(C)C2CC1CCN (centres undefined) in terms of T/C is 97 % of control

The reported value for `C[n+]1cccc(NC(=O)c2ccc(NC(=O)C34CCC(C(=O)Nc5ccc(C(=O)Nc6ccc[n+](C)c6)cc5)(CC3)CC4)cc2)c1` in terms of T/C is 113 % of control

The reported value for `[Cu+2].[NH-]C1(C(=O)O)CCCC1.[NH-]C1(C(=O)O)CCCC1` in terms of T/C is 89 % of control

The reported value for `CC1=CC(=O)C(c2ccc(O)cc2O)=CC1=O` in terms of T/C is 96 % of control

Hey, just so you know, these numbers are from PubChem BioAssay AID256.
